test_system: T1, hVEGF-A (8-109) (human, UniProt P15692 214-315)
T1 sequence (looked up): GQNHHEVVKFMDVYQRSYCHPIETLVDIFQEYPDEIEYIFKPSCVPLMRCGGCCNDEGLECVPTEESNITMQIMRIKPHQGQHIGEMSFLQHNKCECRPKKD
assay_name: SPR
Method: Depending on the format of the assay either a streptavidin sensor (SA) or a dextran-coated (CM5) sensor was utilized as described below. Reaction was then quenched by addition of 10 molar excess of Glycine pH 8.0 and the sample was buffer exchanged into PBS using an Amicon 0.5 mL 3000 MWCO ultra-centrifugal filters (EMD Millipore). The biotinylation state of the protein was verified by LC-MS analysis. […]
assay_endpoint: pKd
Answers are plain numbers, as −log10 of the molar value.

Here are 3 binders together with their reported answers.
pKd lookup needed for GCNIMLPFWGCKQDSDCLAGCVCQYYQSCG (designed binder, also called EM54) [VEGF_CKP9.54] , thanks.
6.75

Give its pKd value. Item: GCDVMQPYWGCKQDSDCLAGCVCHWYNSCG (designed binder, also called EM63) [VEGF_CKP9.63]
6.55

Reported pKd for GCDVMQPYWGCGPDIDCLAGCVCHWYNSCG (designed binder, also called L2.9.63.12) [VEGF_CKP9.63.12] : what is it?
8.49

Here is the next item to consider.
Please give the measured pKd for this binder: GCNIMLPFWGCGRDFECLAGCVCQYYQSCG (designed binder) [VEGF_CKP9.54.90]
9.06
